Test system: HepaRG
Assay: LDH release cytotoxicity, % of total lysis control; higher = more cytotoxic
Conditions: 100 µM; 48 h
Structures can show the parent of a compound that is named as a salt.
Entries and their LDH release cytotoxicity

| COMPOUND | LDH release cytotoxicity (%) |
| --- | --- |
| CN1CCCC1c1cccnc1 (stereo not given) | 0.154 |
| Cc1c(-c2cccnc2)c2ccccc2n1CCCCC(=O)O | 4.56 |
| Nc1c(Cl)cc([N+](=O)[O-])cc1Cl | 0.0971 |
| Cc1cc(O)ccc1Cl | 2.48 |
| CC1(C)CC(N=C=O)CC(C)(CN=C=O)C1 (stereo not given) [Isophorone diisocyanate] | 0.405 |
| CN(C)C(=S)[S-].CN(C)C(=S)[S-].[Zn+2] | 46.8 |
| c1cc[n+]2c(c1)-c1cccc[n+]1CC2 [Diquat dibromide monohydrate] | 2.13 |
| CC(=O)C1C(=O)C=C(C)OC1=O (stereo not given) [Sodium dehydroacetate] | 0.541 |
| Cc1cn(C2CC(N=[N+]=[N-])C(CO)O2)c(=O)nc1O (stereo not given) | -0.709 |
| CCCCCCCCN(C)CCCCCCCC | 0.33 |
| O=C(O)c1ccccc1C(=O)OCc1ccccc1 [Monobenzyl phthalate] | -5.73 |
| CC1CN(N=Cc2cccnc2)C(=O)N=N1 (stereo not given) | 9.47 |
| CCOC(=O)CC(SP(=S)(OC)OC)C(=O)OCC (stereo not given) | 0.626 |
| CCCCc1ccc2c(n1)C(c1ccc(OC)cc1CC(C)C(=O)O)C(C(=O)O)C2c1ccc2c(c1)OCO2 (stereo not given) | 0.0481 |
| CCOP(=S)(OCC)Oc1ccc([N+](=O)[O-])cc1 | 6.21 |
| C=CCc1ccc2c(c1)OCO2 | 1.79 |
| Nc1ccc2ccccc2c1 | 0.14 |
| O=C1CCCCC1 | 0.737 |
| CCC(C)OC(=O)N1CCCCC1CCO (stereo not given) | 9.41 |
| CNS(=O)(=O)c1cc(C(=O)N2CCC(CCN3C4CCC3CC(n3c(C)nc5ccccc53)C4)(c3cccc(F)c3)CC2)c(Cl)cc1F (stereo not given) | 23.1 |
| N#CN=C1SCCN1Cc1ccc(Cl)nc1 | -1.64 |
| N#CSCSc1nc2ccccc2s1 | 1.03 |
| CC(C)=CC1C(C(=O)OCc2coc(Cc3ccccc3)c2)C1(C)C (stereo not given) | 0.209 |
| NC(Cc1cc(I)c(Oc2ccc(O)c(I)c2)c(I)c1)C(=O)O (stereo not given) | 0.489 |
| CN(C)C(=O)Nc1ccc(Cl)cc1 | 0.589 |
| CCCCN1C(=O)C(C(O)C2CCCCC2)NC(=O)C12CCN(Cc1ccc(Oc3ccc(C(=O)O)cc3)cc1)CC2 (stereo not given) [Aplaviroc hydrochloride] | 27.4 |
| COc1cccc(C(=O)NN(C(=O)c2cc(C)cc(C)c2)C(C)(C)C)c1C [Methoxyfenozide] | 3.13 |
| O=C(O)c1cc(Oc2ccc(C(F)(F)F)cc2Cl)ccc1[N+](=O)[O-] | 2.95 |
| OCCNCCO | 0.309 |
| CCNc1nc(Cl)nc(NC(C)C)n1 | -0.59 |

---

System: HepaRG
Assay: LDH release cytotoxicity, % of total lysis control; higher = more cytotoxic
Settings: 1 µM; 48 h

| MOLECULE | LDH release cytotoxicity [%] |
| --- | --- |
| COc1c(Cl)ccc(Cl)c1C(=O)O | -2.09 |
| CON=C(C1=NOCCO1)c1ccccc1Oc1ncnc(Oc2ccccc2Cl)c1F | 0.517 |
| CCOP(=S)(Oc1cnc(C(C)(C)C)nc1)OC(C)C (stereo not drawn) | -2.26 |
| Cc1cc2c3c(c1)C(c1ccccc1)=NC(NC(=O)c1ccncc1)C(=O)N3CC2 (stereo not drawn) | -2.27 |
| COc1cc(OC)nc(Sc2cccc(Cl)c2C(=O)O)n1 [Pyrithiobac-sodium] | -0.953 |
| ClC1=C(Cl)C2(Cl)C3C4CC(C5OC45)C3C1(Cl)C2(Cl)Cl (stereo not drawn) [Endrin] | -0.635 |
| CCCN(CCC)c1c([N+](=O)[O-])cc(C(F)(F)F)cc1[N+](=O)[O-] | -6.43 |
| COP(=O)(OC)OC(C)=CC(=O)N(C)C | -2.46 |
